target: T1, human FOLR1 protein, His Tag (ACRO FO1-H52H1) (human, UniProt P15328 25-233); assay: ELISA, coated hFOLR1-His, supernatant 25x
T1 construct: Bought protein coated on ELISA plates; not shown: His tag
T1 sequence (P15328 25-233 limits assumed): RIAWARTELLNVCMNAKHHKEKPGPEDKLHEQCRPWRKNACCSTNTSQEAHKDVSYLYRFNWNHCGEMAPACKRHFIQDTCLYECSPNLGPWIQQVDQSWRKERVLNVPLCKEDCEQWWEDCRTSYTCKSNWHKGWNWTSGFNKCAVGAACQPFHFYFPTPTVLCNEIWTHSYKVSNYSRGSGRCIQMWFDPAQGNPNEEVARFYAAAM
measurement type: OD450 (OD450)
Field: numeric (OD450). Do not append units.

Query string: Return reported OD450; argument: F138 (antibody, V domains shown, Tested as full-length IgG with an IgG1 Fc, HEK293 supernatant; also called clone F138; anti-FOLR1 antibody F138) VH: EVQLLESGGGVVQPGRSLRLSCAASGFTFSSYGMHWVRQAPGKGLEWVAVISYDGSNKYYADSVKGRFTISTHNSKNTLYLQMNSLRAEDTAVYYCARPRAYYGAYGSSFDYWGQGTQVTVSS VL: EIVMTQSPSSVSASVGDRVAITCRASQGISSWLAWYQQKPGKAPKLLIYAASSLQSGVPSRFSGSGSGTDFTLTISSLQPEDFATYYCQQSYSTPLTFGGGTKVDIK
Result string: 1.83

Query string: Return reported OD450; argument: F26 (antibody, V domains shown, Tested as full-length IgG with an IgG1 Fc from HEK293, as supernatant or purified; also called clone F26; anti-FOLR1 antibody F26) VH: EVQLLESGGGVVQRGRSLRLSCAASGFTFSSYGMHWVRQAPGKGLEWVAVISYDGSNKYYADSVKGRFTISRDNSKNTLYLPMNSLRAEDTAVYYCARPRAYYGAYGSSFDYWGQGTQVTVSS VL: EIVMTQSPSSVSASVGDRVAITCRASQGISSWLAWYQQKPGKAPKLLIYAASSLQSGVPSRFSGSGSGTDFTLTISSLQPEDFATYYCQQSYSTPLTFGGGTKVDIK
Result string: 1.48
